Source listed as PubChem BioAssay (NCI).

Below, each entry is listed alongside its reported TGI.
Tested on: SR leukemia
Test: NCI tumour cell line growth inhibition, 48 h

[
  {
    "compound": "O=C(O)c1ccc(C2COc3ccc(Cl)cc3C2)cc1 (stereo not given)",
    "inequality_sign": ">",
    "TGI, µM": 100
  },
  {
    "compound": "COc1cc2c(c(OC)c1)/C(=C/Sc1ccccc1)C(=O)N(C(C)(C)C)C2",
    "inequality_sign": "=",
    "TGI, µM": 66.7
  },
  {
    "compound": "COc1ccc(C(=O)/C=C/c2ccc(O)c(O)c2)c(OC)c1",
    "inequality_sign": "=",
    "TGI, µM": 6.54
  },
  {
    "compound": "COCc1nc(N)nc(N2N=C(C)CC2(C)C)n1",
    "inequality_sign": ">",
    "TGI, µM": 100
  },
  {
    "compound": "CCC(=O)C12OC3OC(C)(C)OC3C1OC(C)(C)O2 (stereo not given)",
    "inequality_sign": ">",
    "TGI, µM": 100
  }
]
